Consider the following sequences; for each one, report its melting temperature.
System: HeLa Kyoto
procedure text: melting temperature (median over replicates), in situ; higher = more thermally stable
condition set: cell cycle stage: G1/S

# input Looking for the measured melting temperature of MAAEADGPLKRLLVPILLPEKCYDQLFVQWDLLHVPCLKILLSKGLGLGIVAGSLLVKLPQVFKILGAKSAEGLSLQSVMLELVALTGTMVYSITNNFPFSSWGEALFLMLQTITICFLVMHYRGQTVKGVAFLACYGLVLLVLLSPLTPLTVVTLLQASNVPAVVVGRLLQAATNYHNGHTGQLSAITVFLLFGGSLARIFTSIQETGDPLMAGTFVVSSLCNGLIAAQLLFYWNAKPPHKQKKAQ [MPDU1] , can you help?
# output 59.2 °C

# input Need melting temperature, item MAAAAAGTATSQRFFQSFSDALIDEDPQAALEELTKALEQKPDDAQYYCQRAYCHILLGNYCVAVADAKKSLELNPNNSTAMLRKGICEYHEKNYAAALETFTEGQKLDIETGFHRVGQAGLQLLTSSDPPALDSQSAGITGADANFSVWIKRCQEAQNGSESEVWTHQSKIKYDWYQTESQVVITLMIKNVQKNDVNVEFSEKELSALVKLPSGEDYNLKLELLHPIIPEQSTFKVLSTKIEIKLKKPEAVRWEKLEGQGDVPTPKQFVADVKNLYPSSSPYTRNWDKLVGEIKEEEKNEKLEGDAALNRLFQQIYSDGSDEVKRAMNKSFMESGGTVLSTNWSDVGKRKVEINPPDDMEWKKY [SUGT1]
# output 51.5 °C

# input Quick check: melting temperature of MQRALPGARQHLGAILASASVVVKALCAAVLFLYLLSFAVDTGCLAVTPGYLFPPNFWIWTLATHGLMEQHVWDVAISLTTVVVAGRLLEPLWGALELLIFFSVVNVSVGLLGAFAYLLTYMASFNLVYLFTVRIHGALGFLGGVLVALKQTMGDCVVLRVPQVRVSVMPMLLLALLLLLRLATLLQSPALASYGFGLLSSWVYLRFYQRHSRGRGDMADHFAFATFFPEILQPVVGLLANLVHSLLVKVKICQKTVKRYDVGAPSSITISLPGTDPQDAERRRQLALKALNERLKRVEDQSIWPSMDDDEEESGAKVDSPLPSDKAPTPPGKGAAPESSLITFEAAPPTL [TMEM115] ?
# output 55.8 °C

* * *

System: HeLa Kyoto
procedure text: solubility in G1/S (NP-40 vs SDS abundance) (log2 ratio); higher = more soluble
condition set: cell cycle stage: G1/S
quantity measured: solubility in G1/S (log2)
Answer with a number only.

# input Tell me the measured solubility in G1/S (log2) of MAAAADSFSGGPAGVRLPRSPPLKVLAEQLRRDAEGGPGAWRLSRAAAGRGPLDLAAVWMQGRVVMADRGEARLRDPSGDFSVRGLERVPRGRPCLVPGKYVMVMGVVQACSPEPCLQAVKMTDLSDNPIHESMWELEVEDLHRNIP [RMI2] , please.
# output 0.374

# input Look up solubility in G1/S (log2) for this sequence: MPLELELCPGRWVGGQHPCFIIAEIGQNHQGDLDVAKRMIRMAKECGADCAKFQKSELEFKFNRKALERPYTSKHSWGKTYGEHKRHLEFSHDQYRELQRYAEEVGIFFTASGMDEMAVEFLHELNVPFFKVGSGDTNNFPYLEKTAKKGRPMVISSGMQSMDTMKQVYQIVKPLNPNFCFLQCTSAYPLQPEDVNLRVISEYQKLFPDIPIGYSGHETGIAISVAAVALGAKVLERHITLDKTWKGSDHSASLEPGELAELVRSVRLVERALGSPTKQLLPCEMACNEKLGKSVVAKVKIPEGTILTMDMLTVKVGEPKGYPPEDIFNLVGKKVLVTVEEDDTIMEELVDNHGKKIKS [NANS]
# output 0.172

# input Query: solubility in G1/S (log2); subject: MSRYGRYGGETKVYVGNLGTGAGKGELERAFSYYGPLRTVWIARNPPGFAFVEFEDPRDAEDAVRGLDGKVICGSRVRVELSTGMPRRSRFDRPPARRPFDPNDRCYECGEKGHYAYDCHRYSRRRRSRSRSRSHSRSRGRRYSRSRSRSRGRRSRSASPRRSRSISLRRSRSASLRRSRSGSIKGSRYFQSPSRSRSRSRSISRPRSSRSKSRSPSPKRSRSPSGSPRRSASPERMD [SRSF7]
# output -1.02

* * *

Test system: HeLa Kyoto
procedure text: melting temperature (median over replicates), in situ; higher = more thermally stable
condition set: cell cycle stage: G1/S
quantity measured: melting temperature (°C)
Dear colleague, please return just the value in °C, with no unit written.

# input Bench note: what melting temperature did MDRTCEERPAEDGSDEEDPDSMEAPTRIRDTPEDIVLEAPASGLAFHPARDLLAAGDVDGDVFVFSYSCQEGETKELWSSGHHLKACRAVAFSEDGQKLITVSKDKAIHVLDVEQGQLERRVSKAHGAPINSLLLVDENVLATGDDTGGICLWDQRKEGPLMDMRQHEEYIADMALDPAKKLLLTASGDGCLGIFNIKRRRFELLSEPQSGDLTSVTLMKWGKKVACGSSEGTIYLFNWNGFGATSDRFALRAESIDCMVPVTESLLCTGSTDGVIRAVNILPNRVVGSVGQHTGEPVEELALSHCGRFLASSGHDQRLKFWDMAQLRAVVVDDYRRRKKKGGPLRALSSKTWSTDDFFAGLREEGEDSMAQEEKEETGDDSD [WDR55] show?
# output 51.3

# input Item MAVDITLLFRASVKTVKTRNKALGVAVGGGVDGSRDELFRRSPRPKGDFSSRAREVISHIGKLRDFLLEHRKDYINAYSHTMSEYGRMTDTERDQIDQDAQIFMRTCSEAIQQLRTEAHKEIHSQQVKEHRTAVLDFIEDYLKRVCKLYSEQRAIRVKRVVDKKRLSKLEPEPNTKTRESTSSEKVSQSPSKDSEENPATEERPEKILAETQPELGTWGDGKGEDELSPEEIQMFEQENQRLIGEMNSLFDEVRQIEGRVVEISRLQEIFTEKVLQQEAEIDSIHQLVVGATENIKEGNEDIREAIKNNAGFRVWILFFLVMCSFSLLFLDWYDS [STX18] has what recorded melting temperature?
# output 50.1

# input May I ask what melting temperature has been recorded for MGLSPSAPAVAVQASNASASPPSGCPMHEGKMKGCPVNTEPSGPTCEKKTYSVPAHQERAYEYVECPIRGTAAENKENLDPSNLMPPPNQTPAPDQPFALSTVREESSIPRADSEKKWVYPSEQMFWNAMLKKGWKWKDEDISQKDMYNIIRIHNQNNEQAWKEILKWEALHAAECPCGPSLIRFGGKAKEYSPRARIRSWMGYELPFDRHDWIINRCGTEVRYVIDYYDGGEVNKDYQFTILDVRPALDSLSAVWDRMKVAWWRWTS [HCCS] ?
# output 55.3

* * *

Tested on: HeLa Kyoto
procedure text: thermal stability score vs G1/S (z-score of summed log2 fold changes over temperatures); higher = more thermally stable than in G1/S
condition set: cell cycle stage: mitosis
What thermal stability score was measured for each of the following?
A bare number is all that is needed in reply.

# input Given the sequence MAGKKVLIVYAHQEPKSFNGSLKNVAVDELSRQGCTVTVSDLYAMNLEPRATDKDITGTLSNPEVFNYGVETHEAYKQRSLASDITDEQKKVREADLVIFQFPLYWFSVPAILKGWMDRVLCQGFAFDIPGFYDSGLLQGKLALLSVTTGGTAEMYTKTGVNGDSRYFLWPLQHGTLHFCGFKVLAPQISFAPEIASEEERKGMVAAWSQRLQTIWKEEPIPCTAHWHFGQ [NQO2] , what is its reported thermal stability score?
# output -2.35

# input Returns the measured thermal stability score for the input sequence. Input: MAKGDPKKPKGKMSAYAFFVQTCREEHKKKNPEVPVNFAEFSKKCSERWKTMSGKEKSKFDEMAKADKVRYDREMKDYGPAKGGKKKKDPNAPKRPPSGFFLFCSEFRPKIKSTNPGISIGDVAKKLGEMWNNLNDSEKQPYITKAAKLKEKYEKDVADYKSKGKFDGAKGPAKVARKKVEEEDEEEEEEEEEEEEEEDE [HMGB3]
# output 0.604

# input // lookup thermal stability score for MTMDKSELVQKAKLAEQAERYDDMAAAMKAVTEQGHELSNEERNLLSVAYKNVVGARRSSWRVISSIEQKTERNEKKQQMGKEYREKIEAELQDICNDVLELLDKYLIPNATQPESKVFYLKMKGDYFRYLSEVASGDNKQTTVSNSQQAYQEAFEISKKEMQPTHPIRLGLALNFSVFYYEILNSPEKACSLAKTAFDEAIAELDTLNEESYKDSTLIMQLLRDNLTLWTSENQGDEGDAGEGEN [YWHAB]
# output -2.76

* * *

System: HeLa Kyoto
procedure text: solubility in G1/S (NP-40 vs SDS abundance) (log2 ratio); higher = more soluble
condition set: cell cycle stage: G1/S
I'd be grateful if you could share measured solubility in G1/S (log2) for these entries.
Give your answer as a number; write no unit.

# input What does the record list as solubility in G1/S (log2) for MAAKVFESIGKFGLALAVAGGVVNSALYNVDAGHRAVIFDRFRGVQDIVVGEGTHFLIPWVQKPIIFDCRSRPRNVPVITGSKDLQNVNITLRILFRPVASQLPRIFTSIGEDYDERVLPSITTEILKSVVARFDAGELITQRELVSRQVSDDLTERAATFGLILDDVSLTHLTFGKEFTEAVEAKQVAQQEAERARFVVEKAEQQKKAAIISAEGDSKAAELIANSLATAGDGLIELRKLEAAEDIAYQLSRSRNITYLPAGQSVLLQLPQ [PHB] ?
# output -0.137

# input Please report the recorded solubility in G1/S (log2) for MGLSPSAPAVAVQASNASASPPSGCPMHEGKMKGCPVNTEPSGPTCEKKTYSVPAHQERAYEYVECPIRGTAAENKENLDPSNLMPPPNQTPAPDQPFALSTVREESSIPRADSEKKWVYPSEQMFWNAMLKKGWKWKDEDISQKDMYNIIRIHNQNNEQAWKEILKWEALHAAECPCGPSLIRFGGKAKEYSPRARIRSWMGYELPFDRHDWIINRCGTEVRYVIDYYDGGEVNKDYQFTILDVRPALDSLSAVWDRMKVAWWRWTS [HCCS] .
# output 0.328
